These measurements were taken from ChEMBL document CHEMBL1136190.

test system: Enterococcus faecalis; assay: Minimum inhibitory concentration against Enterococcus faecalis (VanA, BM4166); assay type: functional

| compound | MIC |
| --- | --- |
| CN[C@H](CC(C)C)C(=O)NC1C(=O)NC(CC(N)=O)C(=O)NC2C(=O)NC3C(=O)NC(C(=O)NC(C(=O)OC)c4cc(OC)cc(OC)c4-c4cc3ccc4OC)C(O)c3ccc(c(Cl)c3)Oc3cc2cc(c3OC)Oc2ccc(cc2Cl)[C@H]1O (stereo partly drawn) | 50 µg/mL |
| COC(=O)[C@H]1NC(=O)[C@H]2NC(=O)[C@H](NC(=O)[C@@H]3NC(=O)[C@H]4NC(=O)[C@H](NC(=O)[C@H](N)c5ccc(O)c(c5)Oc5cc4cc(O)c5C)[C@H](O)c4ccc(cc4)Oc4cc3cc(c4O)Oc3ccc(cc3)[C@H]2O)c2ccc(O)c(c2)-c2c(O)cc(O)cc21 | > 100 µg/mL |
| COC(=O)C1NC(=O)C2NC(=O)C(NC(=O)C3NC(=O)C4NC(=O)[C@H](NC(=O)[C@H](N)c5ccc(O)c(c5)Oc5cc4cc(O)c5C)[C@H](O)c4ccc(cc4)Oc4cc3cc(c4OC)Oc3ccc(cc3)C2O)c2ccc(O)c(c2)-c2c(OC)cc(O)cc21 (stereo partly drawn) | > 100 µg/mL |
